assay system: human TYK2 (JH2domain-pseudokinase) (Homo sapiens (Human), UniProt P29597)
Sequence (P29597 556-888): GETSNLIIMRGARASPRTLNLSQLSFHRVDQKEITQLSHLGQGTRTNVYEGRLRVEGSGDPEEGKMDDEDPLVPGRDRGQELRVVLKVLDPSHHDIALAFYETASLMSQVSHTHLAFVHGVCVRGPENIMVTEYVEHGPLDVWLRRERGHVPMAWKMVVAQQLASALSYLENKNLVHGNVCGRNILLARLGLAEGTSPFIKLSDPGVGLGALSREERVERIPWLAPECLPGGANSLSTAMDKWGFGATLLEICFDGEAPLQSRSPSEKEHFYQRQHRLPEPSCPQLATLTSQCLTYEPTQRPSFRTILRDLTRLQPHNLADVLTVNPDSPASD
measurement protocol: TYK2 JH2 Domain Binding Assay (KINOMEscan)
conditions: read-out: hTYK2_JH2_Binding (Kd)
pKd: −log10 of the molar value.
As shown below, each of these compounds has a reported pKd value.
outcome measure: pKd

>  <compound>
CNc1cc(-c2cn(C(C)C)c3ncccc23)nn2c(C(=O)N[C@@H]3C[C@@H]3F)cnc12

>  <reported result>
> 9.70

$$$$
>  <compound>
CNc1cc(-c2cn(C(C)C)c3ncccc23)nn2c(C(=O)N[C@H]3COC[C@H]3O)cnc12

>  <reported result>
> 9.70

$$$$
>  <compound>
CNc1cc(Nc2cccn([C@H]3CC[C@H](OC)CC3)c2=O)nn2c(C(=O)N[C@H]3CC[C@@H]3OC)cnc12 (racemic)

>  <reported result>
> 9.70

$$$$
>  <compound>
CNc1cc(Nc2cccn(-c3ccccn3)c2=O)nn2c(C(=O)N[C@H]3CC[C@@H]3OC)cnc12 (stereo in doubt)

>  <reported result>
> 9.70

$$$$
>  <compound>
CNc1cc(-c2cn(CCN3CCOCC3)c3ncccc23)nn2c(C(=O)N[C@H]3CC[C@H]3O)cnc12

>  <reported result>
> 9.70

$$$$
